- tgt: human ether-à-go-go-related gene (hERG) potassium channel (human)
- Sequence (Q12809 whole entry, looked up): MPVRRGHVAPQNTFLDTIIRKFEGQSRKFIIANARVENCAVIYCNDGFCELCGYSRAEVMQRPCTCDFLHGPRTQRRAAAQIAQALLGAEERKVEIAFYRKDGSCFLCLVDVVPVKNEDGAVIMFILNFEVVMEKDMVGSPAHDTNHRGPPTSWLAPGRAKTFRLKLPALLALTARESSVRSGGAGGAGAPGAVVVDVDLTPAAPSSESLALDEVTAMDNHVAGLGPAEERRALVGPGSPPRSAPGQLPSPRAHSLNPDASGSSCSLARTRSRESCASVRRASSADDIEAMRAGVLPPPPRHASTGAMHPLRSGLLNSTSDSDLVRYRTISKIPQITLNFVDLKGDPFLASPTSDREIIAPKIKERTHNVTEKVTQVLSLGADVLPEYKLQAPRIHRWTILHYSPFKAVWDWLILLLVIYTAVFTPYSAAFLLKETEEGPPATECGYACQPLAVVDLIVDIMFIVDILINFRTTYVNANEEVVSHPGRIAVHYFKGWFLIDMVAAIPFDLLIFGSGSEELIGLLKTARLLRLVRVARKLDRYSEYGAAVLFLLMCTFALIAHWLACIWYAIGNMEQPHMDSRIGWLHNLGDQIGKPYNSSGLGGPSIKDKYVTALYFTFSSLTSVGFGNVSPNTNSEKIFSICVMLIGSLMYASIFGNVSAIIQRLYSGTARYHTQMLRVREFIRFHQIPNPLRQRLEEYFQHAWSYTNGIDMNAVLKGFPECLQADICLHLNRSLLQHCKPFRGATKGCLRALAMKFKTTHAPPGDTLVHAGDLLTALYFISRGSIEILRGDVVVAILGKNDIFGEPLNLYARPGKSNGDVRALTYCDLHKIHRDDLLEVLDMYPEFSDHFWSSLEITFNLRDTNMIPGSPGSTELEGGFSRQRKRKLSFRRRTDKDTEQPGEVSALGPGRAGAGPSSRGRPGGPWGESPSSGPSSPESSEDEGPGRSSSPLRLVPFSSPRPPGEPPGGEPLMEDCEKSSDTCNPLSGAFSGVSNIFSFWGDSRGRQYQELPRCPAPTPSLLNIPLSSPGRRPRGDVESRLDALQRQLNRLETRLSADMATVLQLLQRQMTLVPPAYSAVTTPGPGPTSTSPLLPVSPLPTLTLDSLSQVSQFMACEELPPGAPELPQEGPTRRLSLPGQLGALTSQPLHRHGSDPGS
- measurement.notes: primary screen, population patch clamp on CHO cells stably expressing hERG; higher = less effect of the substance;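 further: peak tail current of the secondary pulse compared with the same well before compound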
About 14,000 (4.5%) of roughly 310,000 compounds showed an effect of 50% or more. Effects have a minus sign here. Only a selection was taken, and strong results are over-represented in it overall.
Catalogue of hERG current change (%, negative = inhibition) at 10uM readings, one per entry.
assay.readout: hERG current change (%, negative = inhibition) at 10uM

compound	assay.value
Cc1csc2ncc(C(=O)N3CCc4ccccc43)c(=O)n12	15.1%
COc1ccccc1NC(=O)CSC1=NCCN1.Cl	36.3%
CCCCn1c2c(c(=O)n(C)c1=O)C(c1ccc(OC)cc1)N1CCCCCC1=N2 (centres unmarked)	-21.9%
CC(=O)c1cccc(NC(=O)N2CCC(c3ccc(C)cc3)C2)c1 (centres unmarked)	-13.8%
Cc1ccc(Oc2nnc(-c3ccccc3)c3ccccc23)cc1	-2.98%
COc1ccccc1N(CC(O)Cn1ccnc1C)S(=O)(=O)c1ccc(C)cc1.Cl (centres unmarked)	-39.3%
COc1ccc(C=C(c2nc3ccccc3s2)c2nc3ccccc3s2)cc1O	3.94%
CCN(CC)C(=O)CSc1nnc(-c2cccs2)n1Cc1ccco1	-11%
Cc1ccc(-c2nnc(OCc3cccnc3)c3ccccc23)cc1	-75.7%
Cc1ccc(-n2c(O)c(C=N)c(=O)n(-c3ccc(C)cc3)c2=O)cc1	-8.85%
O=C(COC(=O)c1cc(-c2ccccc2)nc2ccccc12)Nc1ccc2c(c1)OCO2	10.7%
CCCCc1cc(=O)oc2c(C)c(OCC(=O)NCCN3CCOCC3)ccc12	-82.1%
CC1(C)CC(CC(=O)NNc2nc(-c3ccccc3)cs2)C(=O)O1 (centres unmarked)	-2.28%
c1ccc(COc2cncc(-c3cccnc3)c2)cc1	-17.8%
O=C(NC1CCCCC1)c1cc(S(=O)(=O)N2CCOCC2)c(Cl)cc1Cl	13.6%
O=C(O)/C=C/C(=O)Nc1ccc(Oc2ncnc3cc(Cl)ccc23)nc1	18.4%
Br.CC(C)CC1CC(C)(c2csc(NNC(=O)c3ccccc3)n2)OC1=O (centres unmarked)	-74.5%
CCCCN(CC)C(=O)c1n[nH]c(=O)c2ccccc12	2.92%
O=c1c2c3nc4ccccc4nc3n(CC3CCCO3)c2ncn1CCc1ccccc1 (centres unmarked)	-5.67%
NC(=O)CN(C/C=C/c1ccccc1)C/C=C/c1ccccc1	20.6%
CN(C/C=C/c1ccccc1)C1CCCCC1	-21.7%
CCc1cc(=O)oc2c(C)c(OCC(=O)NCCN3CCOCC3)ccc12	-0.348%
Cc1c(C)c2ccc(OCC(=O)NCCN3CCOCC3)c(C)c2oc1=O	1.61%
CCOc1ccc(NC(=O)CN2CCCC2c2cccs2)cc1S(=O)(=O)N1CCCCC1 (centres unmarked)	-11.8%
O=C1CC(N2CCOCC2)C(=O)N1CCc1ccccc1 (centres unmarked)	6.86%
O=C(CN(C(=O)C1CSC(=O)C1)c1ccccc1F)NCc1ccc2c(c1)OCO2 (centres unmarked)	-12.4%
COc1ccc(-c2nnc(OCc3ccccc3)c3ccccc23)cc1	1.82%
CSc1nnc(NC(=O)CCc2ccccc2)s1	-6.33%
c1ccc(-n2c(Cc3cccnc3)nc3cnccc32)cc1	-50.5%
CCN1CCN(C(=O)C(NS(=O)(=O)c2ccc3nc(C)sc3c2)C(C)C)CC1 (centres unmarked)	0.194%
CC(=O)Nc1ccc(C(=O)NNC(=O)c2cccc(C)c2)cc1	-1.91%
C=CCn1c(Cc2cccs2)nnc1SCC(=O)Nc1cc(OC)cc(OC)c1	-27.8%
CCc1ccc(-c2cn(-c3nc(C)cc(C)n3)c(=N)o2)cc1	-71.8%
COc1cc(NC(=O)CCc2nnc3ccc(N4CCCC4)nn23)cc(OC)c1OC	6.49%
Cc1nnc(SCC(=O)Nc2ccc3c(c2)OCO3)n(N)c1=O	11.3%
